# subject of test: Carbonic anhydrase 2 (Homo sapiens)
# experimental details: CAII small-molecule binders, profiling panel, biochemical, small-molecule microarray, Alexa647-labelled CAII (AID 1122)
# test context: CAII-A647 binding fluorescence, higher = more signal
Classify as follows. Reported composite z-score greater than or equal to 0.4: 1. Reported composite z-score below: -1.

| structure as smiles | classification |
| --- | --- |
| Cc1ccc(S[C@]2(C(=O)NCc3ccccc3)CC(=O)N(Cc3ccccc3Cl)[C@@H]2c2ccc(CO)cc2)cc1 | 1 |
| COc1ccc([Si](C)(C)[C@H]2[C@H](CC(=O)N(CCO)Cc3ccccc3)O[C@@]3(C(=O)N(Cc4cccc(N5CCCCC5=O)c4)c4ccccc43)[C@@H]2C)cc1 | -1 |
| C[C@]1(C(=O)O)c2ccccc2C(=O)N(Cc2cc(C(F)(F)F)cc(C(F)(F)F)c2)[C@H]1c1ccc(CO)cc1 | 1 |
| C=CCOC(=O)[C@H]1[C@@H]2C(=O)O[C@@H](c3ccccc3)[C@@H](c3ccccc3)N2[C@@H](c2ccc(OCCOC(=O)[C@H]3C[C@H]4C(=O)NCC(=O)N4[C@H]3c3ccc(O)cc3)cc2)[C@]12C(=O)Nc1ccccc12 | 1 |
| CC[C@@H](O[Si](C#C[Si](C(C)C)(C(C)C)C(C)C)(C(C)C)C(C)C)c1cn(Cc2cccc(Cl)c2)nn1 | -1 |
| COC(=O)[C@@]1(Cc2ccc(F)cc2)[C@H]2c3cc(C(=O)N4CCCC4)n(CCSCCO)c3C[C@H]2CN1C(=O)c1ccccc1 | 1 |
| CC(C)[Si]1(C(C)C)OCc2cc(-c3ccc(-c4ccc(Cl)c(Cl)c4)o3)nc(-c3ccc(Oc4ccccc4)cc3)c21 | -1 |

====

# experimental details: yeast growth modulation, basal conditions, primary screen, YJM789 clinical isolate, OD600, 24 h (AID 1089);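 also: growth of clinical yeast isolate S. cerevisiae YJM 789 seeded 1000 cells per well; test concentration not given here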
# test context: S. cerevisiae YJM789 growth, higher = more signal, called active from +8 up or from −8 down
Classify as follows. Reported z-score greater than or equal to 0.5: fulfilled. Reported z-score below: not fulfilled.

| molecule | classification |
| --- | --- |
| [N-]=[N+]=NCc1ccccc1[C@H]1OC(c2ccc(OCCCO)cc2)=N[C@@]1(Cc1ccccc1N=[N+]=[N-])C(=O)N1CCOCC1 | not fulfilled |
| Cc1c(NC(=O)/C(C#N)=C/C=C/c2ccc([N+](=O)[O-])cc2)c(=O)n(-c2ccccc2)n1C | not fulfilled |
| Cc1ccc(N2C(=O)c3ccccc3[C@@H](C(=O)NCCN3CCOCC3)[C@@H]2c2ccc(CO)cc2)nc1 | not fulfilled |
| COCCOC(=O)N1C(=O)[C@@]2(c3cc(C#CCCO)ccc31)[C@H](C(=O)N1CCN(c3ncccn3)CC1)[C@H]1C(=O)O[C@H](c3ccccc3)[C@H](c3ccccc3)N1[C@@H]2c1ccc(OCCO)cc1 | fulfilled |
| C=C[C@H](C)[C@@H](OC(=O)Nc1ccc(SC)cc1)c1ccc(OCCO)cc1 | fulfilled |
| COc1cccc(C)c1NC(=O)O[C@H]1[C@H](OC(=O)Nc2ccccc2-c2ccccc2)[C@@H](OC(=O)Nc2ccccc2-c2ccccc2)[C@@H](OC)O[C@@H]1CO | fulfilled |
| COc1ccc(C(O)C2C=CC3C(=O)N(C)C(=O)C3N2Nc2ccccc2)cc1 (stereo not drawn) | not fulfilled |

====

z-score reference
# experimental details: MM1S cell viability effects, profiling panel, calcein-AM fluorescence, 48 h, basal (AID 1165);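 also: viability of MM1S multiple myeloma cells under basal unstimulated conditions; test concentration not given here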
# test context: higher = more signal

| compound | z-score |
| --- | --- |
| C#CCN(C(=O)OC(C)(C)C)[C@H](CO)c1ccccc1 | -0.404 |
| C=CC[C@H](O)c1ccc(O)c(F)c1 | -0.229 |
| COc1cccc(C)c1NC(=O)O[C@H]1[C@H](OC(=O)Nc2ccccc2-c2ccccc2)[C@@H](OC(=O)Nc2ccccc2-c2ccccc2)[C@@H](OC)O[C@@H]1CO | -3.08 |
| CS(=O)(=O)CCOC(=O)C1=CC(CCCO)=CC(C2CC2)N(Cc2sc3ccccc3c2Cl)C=C1C(=O)OCCS(C)(=O)=O (stereo unspecified) | -3.24 |
| COc1c(C)cc(-c2cc3c(c(CCc4ccccc4)n2)[Si](C(C)C)(C(C)C)O[C@H]3c2ccccc2)cc1C | -3.19 |
| COC(=O)[C@@]1(Cc2ccc(F)cc2)[C@H]2c3cc(C(=O)N(C)C)n(Cc4ccsc4Br)c3C[C@H]2CN1C(=O)c1ccccc1 | -0.766 |
| Cc1ccc(S[C@]2(C(=O)NCCN3CCOCC3)CC(=O)N(C(C)C)[C@@H]2c2ccc(CO)cc2I)cc1 | -2.39 |
| COc1ccc(CCNC(=O)[C@@H]2c3ccccc3C(=O)N(C(C)C)[C@H]2c2ccc(CO)cc2)cc1 | -0.397 |
| CO[C@H]1O[C@H](CO)[C@@H](OC(=O)Nc2cccc(F)c2)[C@H](OC(=O)c2cc3ccccc3[nH]2)[C@H]1OC(=O)c1cc2ccccc2[nH]1 | 0.0134 |
| COC(=O)[C@@]1(Cc2ccc(F)cc2)[C@H]2c3cc(C(=O)N4CCCC4)n(C[C@H](O)CO)c3C[C@H]2CN1C(=O)c1ccccc1 | -0.26 |
| Cc1ccc(S[C@]2(C(=O)NCc3ccccc3)CC(=O)N(Cc3ccccc3Cl)[C@@H]2c2ccc(CO)cc2)cc1 | 0.0218 |
| O=C1OCCC/C=C\[C@H]2OC34C=CCN(Cc5ccccc5)C(=O)[C@H]3N(CCO)C(=O)[C@@H]4C12 (stereo partly specified) | 1.64 |
| CCOC(=O)C1=CCC(c2ccncc2)N(S(=O)(=O)c2ccc(C)cc2)C1 (stereo unspecified) | -2.28 |
| COCCOC(=O)N1C(=O)[C@@]2(c3cc(C#CCC(C(=O)OC)C(=O)OC)ccc31)[C@H](c1ccc(O)cc1)N1[C@H](c3ccccc3)[C@H](c3ccccc3)OC(=O)[C@H]1[C@@H]2C(=O)N1CCc2cc(OC)c(OC)cc2C1 | -0.243 |
| COCCOC(=O)N1C(=O)[C@@]2(c3cc(C#CCC(C(=O)OC)C(=O)OC)ccc31)[C@H](C(N)=O)[C@H]1C(=O)O[C@H](c3ccccc3)[C@H](c3ccccc3)N1[C@@H]2c1ccccc1OCCO | -2.97 |
| CC(C)N1C(=O)[C@@]2(Cc3ccccc31)c1ccccc1C(=O)N(Cc1ccccc1C(F)(F)F)[C@H]2c1ccc(CO)cc1 | -0.895 |

====

z-score reference
# experimental details: basal 3T3-L1 adipocyte mitochondrial potential changes, profiling panel, cell-based, JC-1 fluorescence, 3T3-L1 adipocytes, 24 h, 100 nL compound (AID 1168); also: test concentration not given here
# test context: JC-1 mitochondrial fluorescence, higher = more signal, called active from +8 up or from −8 down
observation type: z-score

| compound | observation type | number |
| --- | --- | --- |
| COC(=O)[C@@]1(Cc2ccc(F)cc2)[C@H]2c3cc(C(=O)N(C)C)n(Cc4ccsc4Br)c3C[C@H]2CN1C(=O)c1ccccc1 | z-score | 0.18 |
| COc1cc(Cc2cc3c(c(-c4ccccc4)n2)[Si](C(C)C)(C(C)C)OC3)cc(OC)c1OC | z-score | 0.323 |
| C=C(/C=C\CNS(=O)(=O)c1ccc(C)cc1)[C@H](O)[C@H]1CCCN1S(=O)(=O)c1ccccc1[N+](=O)[O-] | z-score | -0.955 |
| CO[C@H]1O[C@H](CO)[C@@H](OC(=O)Nc2ccccc2)[C@@H]2OC(=O)[C@@H](Cc3ccccc3)C/C=C/C[C@H](Cc3ccccc3)C(=O)O[C@@H]12 | z-score | 2.28 |
| CN1C(=O)C2C=CC(C(O)c3ccc([N+](=O)[O-])cc3)N(Nc3ccccc3)C2C1=O (stereo not given) | z-score | -1.92 |

====

# experimental details: PSAC antagonists in infected red cells, primary screen, cell-based, P. falciparum Indochina, OD700, 1 h (AID 1154)
# test context: P. falciparum Indochina infected RBC osmotic lysis, higher = more signal, called active from +8 up or from −8 down

| structure as smiles | z-score |
| --- | --- |
| CCOC(=O)C1=CC[C@@H](c2ccccc2)N(S(=O)(=O)c2ccc(C)cc2)[C@@H]1C#N | 4.46 |
| CCCCC=C[C@@H](NC(=O)C(C)(C)C)c1ccccc1 | 2.28 |
| C#CCN(C(=O)OC(C)(C)C)[C@H](CO)c1ccccc1 | 1.57 |
| COC(=O)c1c2oc(c1C(=O)OC)C(=O)N[C@H](Cc1ccccc1)Cn1cc(nn1)C1(CCCCC1)NC(=O)N[C@H](CO)CC2 | 0.96 |
| C[N+](C)(C)CCCC[C@@H]1NC(=O)[C@H]2C[C@@H](C(=O)NCCCCCN)[C@@H](c3ccc(O)cc3)N2C1=O | 0.105 |

====

# experimental details: S. cerevisiae growth modulation with rapamycin, primary screen, strain BY4716, OD600, 96 h (AID 1091); also: test concentration not given here
# test context: called active from +8 up or from −8 down
Active and inactive are the calls of the source.
Outcomes: Y (active), N (inactive)

| structure as smiles | classification |
| --- | --- |
| C=C(/C=C\CNS(=O)(=O)c1ccc(C)cc1)[C@H](O)[C@H]1CCCN1S(=O)(=O)c1ccccc1[N+](=O)[O-] | Y |
| O=C/C=C/c1ccc(-c2ccccc2)cc1 | N |
| CC[C@@H]1C=C(C(=O)O)[C@H](c2cccc(Cl)c2)N1S(=O)(=O)c1ccc(C)cc1 | N |
| COC(=O)[C@@]1(Cc2ccccc2)[C@H]2c3cc(C(=O)N(C)C)n(Cc4ccc(Cl)c(C(F)(F)F)c4)c3C[C@H]2CN1C(=O)c1ccccc1 | N |
| CCOC(=O)C1=CC[C@@H](c2ccccc2)N(S(=O)(=O)c2ccc(C)cc2)[C@@H]1C#N | N |
| C=C(COC)C(=O)CC[C@H](OC(C)=O)c1ccc(CO)o1 | N |
| COC(=O)C(CC#Cc1ccc2c(c1)[C@]1(C(=O)N2)[C@H](C(=O)N2CCN(c3ncccn3)CC2)[C@H]2C(=O)O[C@H](c3ccccc3)[C@H](c3ccccc3)N2[C@@H]1c1ccc(O)cc1)C(=O)OC | N |
| O=C1c2ccccc2[C@@]2(Cc3ccccc3N(CC(F)(F)F)C2=O)[C@H](c2ccc(CO)cc2)N1Cc1ccccc1 | N |
| COc1cc2c(cc1OC)CN(C(=O)[C@@H]1[C@H]3C(=O)O[C@H](c4ccccc4)[C@H](c4ccccc4)N3[C@H](c3ccc(O)cc3)[C@@]13C(=O)Nc1ccc(C#CC4=CCCCC4)cc13)CC2 | N |
| [N-]=[N+]=NCc1ccccc1C[C@@]1(C(N)=O)N=C(c2ccc(OCCCO)cc2)O[C@@H]1c1ccccc1N=[N+]=[N-] | N |
| COc1ccc(CCNC(=O)[C@@]2(C)c3ccccc3C(=O)N(Cc3ccc(OC(F)(F)F)cc3)[C@H]2c2ccc(CO)cc2)cc1 | N |
| COC(=O)C(CC#Cc1ccc2c(c1)[C@]1(C(=O)N2)[C@H](C(=O)N2CCCCCCC2)[C@H]2C(=O)O[C@H](c3ccccc3)[C@H](c3ccccc3)N2[C@@H]1c1ccc(OCCO)cc1)C(=O)OC | N |
| CO[C@H]1O[C@H](CO)[C@@H](OC(=O)Nc2ccccc2)[C@@H]2OC(=O)[C@@H](Cc3ccccc3)C/C=C/C[C@H](Cc3ccccc3)C(=O)O[C@@H]12 | N |
| C[N+](C)(C)CCCC[C@@H]1NC(=O)[C@H]2C[C@@H](C(=O)NCCCCCN)[C@@H](c3ccc(O)cc3)N2C1=O | N |
| COc1ccc([Si](C)(C)[C@H]2[C@H](CC(=O)N3CCC[C@H]3CO)O[C@@]3(C(=O)N(C)c4ccccc43)[C@@H]2C)cc1 | N |
| CN(C)C(=O)[C@]1(CCS(=O)(=O)c2ccccc2)N=C(c2ccc(OCCCO)cc2)O[C@@H]1c1ccccc1CN=[N+]=[N-] | N |
